The measurements presented in this section are drawn from patent US12319739.

Target: T1, hMSLN-His-Avi (human, UniProt Q13421 296-598, single biotin on the Avi tag in the biotinylated form)
T1 construct: Monomeric; also called human MSLN-His-Avi; hMSLN-Avi-His
T1 sequence (Q13421 other isoform, or with tags, fused parts or gaps): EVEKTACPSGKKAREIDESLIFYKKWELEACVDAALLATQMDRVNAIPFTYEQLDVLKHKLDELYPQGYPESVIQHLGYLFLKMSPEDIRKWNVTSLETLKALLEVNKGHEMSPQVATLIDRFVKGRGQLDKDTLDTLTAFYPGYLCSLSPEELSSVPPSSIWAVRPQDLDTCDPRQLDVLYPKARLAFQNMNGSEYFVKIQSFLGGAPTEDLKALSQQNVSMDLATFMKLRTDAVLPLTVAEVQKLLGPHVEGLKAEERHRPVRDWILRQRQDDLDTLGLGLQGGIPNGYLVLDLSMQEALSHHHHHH
Experiment: ratio of SPR KDs
MEASURED_ATTRIBUTE: KD ratio in solution/immobilised human MSLN
Numbers only.

BINDER | OBSERVED
FS22-172-003-AA/FS28-256-273 (bispecific antibody, human IgG1, kappa, L234A L235A, V domains shown, IgG1 mAb^2 with LALA) VH: EVQLLESGGGLVQPGGSLRLSCAASGFTFTHTYMSWVRQAPGKGLEWVSSISPTYSTTNYADSVKGRFTISRDNNKNTLYLQMNSLRAEDTAVYYCARYNAYHAALDYWGQGTLVTVSS VL: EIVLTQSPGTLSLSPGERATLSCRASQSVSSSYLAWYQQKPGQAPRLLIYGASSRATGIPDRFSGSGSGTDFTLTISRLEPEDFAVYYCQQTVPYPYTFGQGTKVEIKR | 1.2
FS22-172-003-AA/FS28-256-021 (bispecific antibody, human IgG1, kappa, L234A L235A, V domains shown, IgG1 mAb^2 with LALA) VH: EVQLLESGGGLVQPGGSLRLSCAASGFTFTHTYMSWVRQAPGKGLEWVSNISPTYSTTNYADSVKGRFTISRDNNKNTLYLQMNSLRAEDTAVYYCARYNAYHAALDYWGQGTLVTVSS VL: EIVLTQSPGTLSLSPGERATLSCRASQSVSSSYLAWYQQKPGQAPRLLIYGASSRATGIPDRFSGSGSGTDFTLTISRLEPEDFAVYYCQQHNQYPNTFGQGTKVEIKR | 9
FS22-172-003-AA/FS28-256-024 (bispecific antibody, human IgG1, kappa, L234A L235A, V domains shown, IgG1 mAb^2 with LALA) VH: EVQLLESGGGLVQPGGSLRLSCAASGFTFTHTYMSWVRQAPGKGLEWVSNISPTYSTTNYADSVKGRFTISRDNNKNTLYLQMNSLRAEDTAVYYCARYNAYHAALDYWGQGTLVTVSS VL: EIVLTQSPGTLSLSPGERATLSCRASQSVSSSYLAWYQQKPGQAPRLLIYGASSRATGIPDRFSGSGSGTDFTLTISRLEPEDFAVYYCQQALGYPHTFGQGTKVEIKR | 18

Looking up FS22-172-003-AA/FS28-256-023 (bispecific antibody, human IgG1, kappa, L234A L235A, V domains shown, IgG1 mAb^2 with LALA) VH: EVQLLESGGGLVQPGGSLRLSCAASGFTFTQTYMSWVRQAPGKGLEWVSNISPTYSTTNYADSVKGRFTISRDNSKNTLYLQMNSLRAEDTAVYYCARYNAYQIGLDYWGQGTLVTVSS VL: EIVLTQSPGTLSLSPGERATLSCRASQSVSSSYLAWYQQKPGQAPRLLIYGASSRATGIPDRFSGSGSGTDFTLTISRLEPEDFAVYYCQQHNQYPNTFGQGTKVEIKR , I found its KD ratio in solution/immobilised human MSLN recorded as 18
